Tested on: Escherichia coli TOP10
Experiment: shrunken log2 fold change of peptide-encoding DNA abundance (4.5 h post-induction vs induction); higher = less antimicrobial activity (less host growth inhibition)
Conditions: time post-induction: 4.5 h; library: site-saturation at positions 5, 18, 19, 20
Output Condition met for shrunken log2 fold change not less than -0.03; output Condition not met otherwise.

shrunken log2 fold change >= -0.03 for `RRIRNRPPRLPRPRPRPFGVPRP` ?
Condition met

Confirm if shrunken log2 fold change reported for the sequence `RRIRARPPRLPRPRPRPWQMPRP` is -0.03 or above.
Condition not met

I'd appreciate it if you could say whether `RRIRSRPPRLPRPRPRPYWQPRP` has shrunken log2 fold change at least equal to -0.03.
Condition not met

Please check the record `RRIRIRPPRLPRPRPRPEAQPRP` and state if its shrunken log2 fold change is at or above -0.03.
Condition met

Does shrunken log2 fold change meet or surpass -0.03 for `RRIRCRPPRLPRPRPRPMDMPRP` ?
Condition met

Has `RRIRVRPPRLPRPRPRPKLGPRP` a recorded shrunken log2 fold change greater than or equal to -0.03?
Condition met

Tell me whether shrunken log2 fold change is at least -0.03 here: `RRIRERPPRLPRPRPRPHNEPRP`
Condition not met

Does the sequence `RRIRFRPPRLPRPRPRPWMHPRP` have recorded shrunken log2 fold change that is -0.03 or more?
Condition met

###

Test system: Escherichia coli TOP10
Test: shrunken log2 fold change of peptide-encoding DNA abundance (4.5 h post-induction vs induction); higher = less antimicrobial activity (less host growth inhibition)
Settings: time post-induction: 4.5 h; library: site-saturation at positions 5, 18, 19, 20
Field: shrunken log2 fold change. Provide a value for each of the sequences that follow.
Lab note: jot down the number only; don't add units.

Value wanted: shrunken log2 fold change (Escherichia coli TOP10) of entry `RRIRDRPPRLPRPRPRPQTYPRP`
-0.24

Recorded shrunken log2 fold change for `RRIRERPPRLPRPRPRPPSIPRP` with Escherichia coli TOP10, please?
-0.0171

Write down the reported shrunken log2 fold change of `RRIRRRPPRLPRPRPRPEHIPRP` , test system: Escherichia coli TOP10.
-0.13

Give shrunken log2 fold change (Escherichia coli TOP10) of the following sequence: `RRIRMRPPRLPRPRPRPYDWPRP`
-0.133

Give Escherichia coli TOP10 shrunken log2 fold change for `RRIRQRPPRLPRPRPRPWWGPRP`
0.0786

Lab request: please report shrunken log2 fold change under test system Escherichia coli TOP10 for `RRIRERPPRLPRPRPRPRQHPRP`
-0.0319

Request body: readout shrunken log2 fold change, system Escherichia coli TOP10, query `RRIRERPPRLPRPRPRPQWFPRP` . Return the value.
-0.166

Escherichia coli TOP10 / shrunken log2 fold change / `RRIRWRPPRLPRPRPRPKFMPRP` : value?
-0.0525

Which measured shrunken log2 fold change belongs to `RRIRVRPPRLPRPRPRPSYNPRP` , tested on Escherichia coli TOP10?
-0.485

What measured shrunken log2 fold change is associated with `RRIRDRPPRLPRPRPRPNNMPRP` on Escherichia coli TOP10?
-0.0368

Form entry - test system: Escherichia coli TOP10; read-out: shrunken log2 fold change; sequence: `RRIRNRPPRLPRPRPRPYTWPRP`
-0.547

Recall the recorded shrunken log2 fold change for `RRIRDRPPRLPRPRPRPPGLPRP` with Escherichia coli TOP10 and state it.
-0.317

Query for Escherichia coli TOP10: what shrunken log2 fold change does the record show for `RRIRLRPPRLPRPRPRPGTDPRP` ?
-0.151

Kindly state the measured shrunken log2 fold change obtained for `RRIRMRPPRLPRPRPRPNPDPRP` with Escherichia coli TOP10.
0.377

Find shrunken log2 fold change (Escherichia coli TOP10) for the entry `RRIRCRPPRLPRPRPRPLEVPRP`
-0.174

###

System: Escherichia coli TOP10;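 further: peptides expressed intracellularly from a pBAD plasmid library in pooled LB shake-flask culture, induced with 0.3% L-arabinose, DNA abundance read by NGS, three biological replicates, DESeq2 with apeglm shrinkage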
Assay: shrunken log2 fold change of peptide-encoding DNA abundance (4.5 h post-induction vs induction); higher = less antimicrobial activity (less host growth inhibition)
Details: time post-induction: 4.5 h; library: site-saturation at positions 5, 18, 19, 20
readout: shrunken log2 fold change
Lab note: record the figure alone, no unit after it.

Item `RRIRGRPPRLPRPRPRPLNCPRP` has what recorded shrunken log2 fold change?
-0.0116

What shrunken log2 fold change value was documented for this sequence, `RRIRLRPPRLPRPRPRPWTSPRP` ?
-0.384

Which shrunken log2 fold change value belongs to `RRIRCRPPRLPRPRPRPAVNPRP` ?
-0.386

Suppose we examine the sequence `RRIRWRPPRLPRPRPRPFSIPRP` ; what shrunken log2 fold change value has been reported?
-0.228

Which shrunken log2 fold change value is on record for `RRIRIRPPRLPRPRPRPHVQPRP` ?
-0.131

Requested read-out: shrunken log2 fold change. Entry: `RRIRQRPPRLPRPRPRPQVTPRP`
-0.00931

Would you kindly share the measured shrunken log2 fold change for `RRIRWRPPRLPRPRPRPDKPPRP` ?
0.0507

What does the record list as shrunken log2 fold change for `RRIRVRPPRLPRPRPRPSLTPRP` ?
-0.231

Can you look up the measured shrunken log2 fold change of `RRIRWRPPRLPRPRPRPKYDPRP` for me?
-0.449

Sample `RRIRYRPPRLPRPRPRPGNKPRP` — what was its shrunken log2 fold change?
-0.292

Look up shrunken log2 fold change for this sequence: `RRIRWRPPRLPRPRPRPTREPRP`
0.241

Can you look up the measured shrunken log2 fold change of `RRIRQRPPRLPRPRPRPTEPPRP` for me?
0.00378

Consider the sequence `RRIRTRPPRLPRPRPRPQYRPRP` and give its measured shrunken log2 fold change.
-0.0697

Entry `RRIRDRPPRLPRPRPRPGMPPRP` : reported shrunken log2 fold change = ?
-0.221

shrunken log2 fold change lookup needed for `RRIRLRPPRLPRPRPRPPISPRP` , thanks.
0.0176

Dear colleague, I am looking for the recorded shrunken log2 fold change of the following sequence: `RRIRARPPRLPRPRPRPDLYPRP`
0.00132

Requested field: shrunken log2 fold change. Item: `RRIRERPPRLPRPRPRPKVPPRP`
-0.015

Item under review: `RRIRHRPPRLPRPRPRPPWDPRP` . Reported shrunken log2 fold change?
0.131

Which shrunken log2 fold change reading was recorded for the sequence `RRIRHRPPRLPRPRPRPKRGPRP` ?
0.0662

Looking for the measured shrunken log2 fold change of `RRIRSRPPRLPRPRPRPQWWPRP` , can you help?
0.0138

Can you look up the measured shrunken log2 fold change of `RRIRKRPPRLPRPRPRPPILPRP` for me?
0.0292

Name the recorded shrunken log2 fold change for `RRIRIRPPRLPRPRPRPRRDPRP` .
-0.108

Dear colleague, I am looking for the recorded shrunken log2 fold change of the following sequence: `RRIRSRPPRLPRPRPRPPLDPRP`
0.289

If you can, please state the reported shrunken log2 fold change value of `RRIRPRPPRLPRPRPRPAIKPRP` .
-0.339

Item under review: `RRIRKRPPRLPRPRPRPMFYPRP` . Reported shrunken log2 fold change?
-0.169

Query (sequence): `RRIRNRPPRLPRPRPRPHYCPRP` ; field requested: shrunken log2 fold change
-0.481

State the recorded shrunken log2 fold change for this entry: `RRIRCRPPRLPRPRPRPVFPPRP`
-0.15

Find the recorded shrunken log2 fold change belonging to `RRIRHRPPRLPRPRPRPCTGPRP` and report it.
0.00233

So what's the measured shrunken log2 fold change for this one? `RRIRWRPPRLPRPRPRPTHHPRP`
0.104

Requested field: shrunken log2 fold change. Item: `RRIRDRPPRLPRPRPRPIHYPRP`
-0.0149

Would you mind telling me what shrunken log2 fold change value was observed for `RRIRQRPPRLPRPRPRPSAMPRP` ?
0.218

I would be grateful if you could share the reported shrunken log2 fold change for `RRIRDRPPRLPRPRPRPMRIPRP` .
-0.0494

Quick one: shrunken log2 fold change of `RRIRDRPPRLPRPRPRPGWRPRP` ?
0.832

Please give the measured shrunken log2 fold change for this sequence: `RRIRHRPPRLPRPRPRPDANPRP`
0.152

Data request, read-out shrunken log2 fold change, for `RRIRQRPPRLPRPRPRPKVCPRP`
-0.193

Which shrunken log2 fold change is listed for `RRIRQRPPRLPRPRPRPRMPPRP` ?
0.216

Would you mind telling me what shrunken log2 fold change value was observed for `RRIRHRPPRLPRPRPRPVFKPRP` ?
0.126

Item `RRIRIRPPRLPRPRPRPLNTPRP` has what recorded shrunken log2 fold change?
-0.876

Need shrunken log2 fold change, item `RRIRNRPPRLPRPRPRPNKHPRP`
-0.528

Report shrunken log2 fold change for `RRIRIRPPRLPRPRPRPHFNPRP` please.
-0.966

State the recorded shrunken log2 fold change for this entry: `RRIRGRPPRLPRPRPRPSDNPRP`
-0.165

Requested read-out: shrunken log2 fold change. Entry: `RRIRPRPPRLPRPRPRPEQQPRP`
-0.0146

For `RRIRQRPPRLPRPRPRPMYKPRP` , what is its reported shrunken log2 fold change?
-0.0194

Fill in the blank: the reported shrunken log2 fold change of `RRIRRRPPRLPRPRPRPAFEPRP` is ____.
0.54

Need shrunken log2 fold change, item `RRIRKRPPRLPRPRPRPGCVPRP`
1.16

Can you share its shrunken log2 fold change? I mean this sequence: `RRIRDRPPRLPRPRPRPTSVPRP`
-0.0218

Can you look up the measured shrunken log2 fold change of `RRIRKRPPRLPRPRPRPHVLPRP` for me?
0.0607

Please give the measured shrunken log2 fold change for this sequence: `RRIRTRPPRLPRPRPRPEPHPRP`
0.0668

Report shrunken log2 fold change for `RRIRWRPPRLPRPRPRPTTIPRP` please.
0.127

Name the recorded shrunken log2 fold change for `RRIRVRPPRLPRPRPRPMHYPRP` .
-0.266

Returns the measured shrunken log2 fold change for the input sequence. Input: `RRIRNRPPRLPRPRPRPKNDPRP`
-0.0949

Requested field: shrunken log2 fold change. Item: `RRIRIRPPRLPRPRPRPDYAPRP`
-0.154

Entry `RRIRCRPPRLPRPRPRPNANPRP` has what shrunken log2 fold change?
-0.353

Look at this sequence and give its reported shrunken log2 fold change. `RRIRKRPPRLPRPRPRPSFIPRP`
-0.262

May I ask what shrunken log2 fold change has been recorded for `RRIRIRPPRLPRPRPRPEQFPRP` ?
0.00851

Entry `RRIRMRPPRLPRPRPRPKYKPRP` : reported shrunken log2 fold change = ?
-0.0345

Recorded shrunken log2 fold change of `RRIRYRPPRLPRPRPRPACKPRP` , please.
-0.0277

Please look up its shrunken log2 fold change: `RRIRMRPPRLPRPRPRPLDWPRP`
0.474

Fill in the blank: the reported shrunken log2 fold change of `RRIRNRPPRLPRPRPRPFVCPRP` is ____.
-0.45

Recorded shrunken log2 fold change for `RRIRYRPPRLPRPRPRPNELPRP` , please?
-0.717

Which shrunken log2 fold change reading was recorded for the sequence `RRIRTRPPRLPRPRPRPWMLPRP` ?
-0.0281

Which shrunken log2 fold change is listed for `RRIRKRPPRLPRPRPRPGIAPRP` ?
1.46

Which shrunken log2 fold change value belongs to `RRIRCRPPRLPRPRPRPPDNPRP` ?
0.0386
